Kindly supply the reported apparent KD of K4 kissing-loop reporter values for the records listed here.
test system: K4 kissing-loop RNA reporter; assay: apparent KD of K4 kissing-loop reporter; higher = weaker reporter binding; details: Eterna round: R107; input ligand: tryptophan 2.4 mM;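 also: bound reporter read as fluorescence of individual clusters on recovered sequencing chips by microscopy, with normalized cluster intensities fitted with a binding model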
Provide only the numeric value, understood in nM.

Ask: Give the value of apparent KD of K4 kissing-loop reporter reported for the following: CGUUUAUAGCAGGAUACCAGUACCCAUAAAGUACGUUAAUAGUAGAGUGAUGUUCUAAAGUACCCUUGGCAGCUUAGAGUGAGUG [ExTheophylB.Q]
Reply: 76.4

Ask: Give the value of apparent KD of K4 kissing-loop reporter reported for the following: GUAUCGCUAGGAGGAUAUUUCAAUUCGCCUAUAAAUGGUGAUACGGAGUGAUGUUCCGAUUUACGGAAAGAAGGCCUAGUGAUAC [FMN B 8]
Reply: 282

Ask: Give the value of apparent KD of K4 kissing-loop reporter reported for the following: GAAUGAUAGUAAGGAUAUAGAUAAUCCUUAUAUAUAUCGAGUGAUGUUCGAUGUGGCAAGAUACAUCUAGAAGGUACUGUAAGGU [Same State FMN B GF 16]
Reply: 240

Ask: Give the value of apparent KD of K4 kissing-loop reporter reported for the following: UGUCAUUGGUCUGAUACCAGUUGAUGACGAAUACGUCAACUGGAGUGAUGUUCCAAUAACAACCCUUGGCAGCAGACCGAUGACU [MAT - Same State Theophlline B - Mod of Eli - D3]
Reply: 563

Ask: Give the value of apparent KD of K4 kissing-loop reporter reported for the following: CACGAUGAAUUCUCUAGGAGUGAUGUUUUUCGAGGACCGGUACGGCCGCCACUCGGACGACGAGCGUGGUAGCGGCCUGAAGACU [,omullin]
Reply: 380

Ask: Give the value of apparent KD of K4 kissing-loop reporter reported for the following: UGGCGGACGAUCCGGAGUGAUGUUCCGGAUACCAGCAGAAGAGCCUGCCCUUGGCAGCCGUACGACGCUGGGAGAGUCCGGCGUC [Soteina]
Reply: 76.9

Ask: Give the value of apparent KD of K4 kissing-loop reporter reported for the following: GUAUCGCUAGGAGGAUAUUUCAAUUCGUCAAUAAAUGGUGAUACGGAGUGAUGUUCCGAUUUACGGAAAGAAGGCCUAGUGAUAC [FMN B 7]
Reply: 285

Ask: Give the value of apparent KD of K4 kissing-loop reporter reported for the following: AGGCACGAGCAAGGAUAUUGAGUAGAGUGAUGUUCUGCCUGGGUUGGCUCGAAAGAGCCUUCUCAGCGAGAAGGUGCUCGUGCCU [#2 Same State - FMN A Attempt #22 (HarryS)]
Reply: 719

Ask: Give the value of apparent KD of K4 kissing-loop reporter reported for the following: AAGCAGUCACUCGAACCCAUCGAAGAUGGGCGAGGACCGGUACGGCCGCCACUCGGAGUGAUGUUCCGCAGACUGCAAAAUAAAA
Reply: 164

Ask: Give the value of apparent KD of K4 kissing-loop reporter reported for the following: AAAGGCAAAGCCCGAGUGAUGUUCGACGAUACCAGCCUCGAUAGAGGCCCUUGGCAGCGUAAAUGAUCAUGAAGCCAAGGAAUAA [whbob_Ex_Theo_A_th67]
Reply: 313

Ask: Give the value of apparent KD of K4 kissing-loop reporter reported for the following: GGUAGCAUGGCGGCCGCCACUUACACCACGGCCCUUCUAGUGAUGUUAGAGUGGAUUAUUCCGUUAAGGACCGGGCCAUGCUACC
Reply: 273

Ask: Give the value of apparent KD of K4 kissing-loop reporter reported for the following: UUAGGAGAGGGAAGGAGCGUGAAAGAGAAAGAAUAUAGUGAUGUUAUAUAGAAGAAAGAAUCACAGGUAGGUCGCCCGGAGGAGG [SSArgB.C]
Reply: 518

Ask: Give the value of apparent KD of K4 kissing-loop reporter reported for the following: AAUAAUAUACAAAGGCGAACGAAUAGGGAAGGAGCGCGAUAUAACGCAGGUAGGUCGCCCAUAUUUUUAGUGAUGUUAGAGAAUA [E. Arginine A Tesla 1]
Reply: 757

Ask: Give the value of apparent KD of K4 kissing-loop reporter reported for the following: CAUUAAACUCAAACUAUUGGGUUUACGUUCCGAGGACCGGUACGGCCGCCACUCGGUCGAUGCUAUACCAUACGAGUGAUGUUCG [theeternabot_sameState_KL_Trp_A_1]
Reply: 352

Ask: Give the value of apparent KD of K4 kissing-loop reporter reported for the following: GCAUGGAUCGCAGGAUAUAGAUCCGUGAGUGAAUUCUUGCCAGUGAGGAGUGAUGUUCCUCAUGGGCUAGAAGGGCGAUCCAUGC
Reply: 83.5

Ask: Give the value of apparent KD of K4 kissing-loop reporter reported for the following: CCGAAGAACCAGUGAUGUUGGUUGACUAGACAGGAUAUGAGCAACAUCAGAAGGGUCUGGCUUCGGGAGUGGGUUGCGCUGACCU [Onbizaes]
Reply: 576

Ask: Give the value of apparent KD of K4 kissing-loop reporter reported for the following: GGAGGAGAAUAUGAUACCAGCAGAGAGAGAGAGGAAGUAUAGUGAUGUUAUAUGUGAGAAUGCCCUUGGCAGCAUAAGAAGAAGG [whbob_SS_Theo_B_sa87]
Reply: 132

Ask: Give the value of apparent KD of K4 kissing-loop reporter reported for the following: UGGAGUUGACGAAAAGUCAACUCCAGAGAAGGAGCGGACGAAAGUCCAGGUAGGUCGCUCACUACCAGUGAUGUUGGUACUAAAA
Reply: 181

Ask: Give the value of apparent KD of K4 kissing-loop reporter reported for the following: UCCACGCUUCGAGGAUAUCGGAUUAGAGUGAUGUUCUAAAGACGCCCAGUGAUGUUGGAUGCGAUACGAGAAGGCGGUGGCGUGU [Same State FMN B GF6]
Reply: 176

Ask: Give the value of apparent KD of K4 kissing-loop reporter reported for the following: CAUAGACAAGUGAUGUUUGUCAUAACCGAAGGAGCGUCUUUAAAGACAGGUAGGUCGCGGAUUAAUUAAGUUAUUAUUCUUUUUA [JR_SSArginiA_Sub018]
Reply: 439

Ask: Give the value of apparent KD of K4 kissing-loop reporter reported for the following: AGCAAUAUCACGGCCGCCACUGAAUAUUGUUUUUAUAUUUAUAAAUCUUGCCAGUGAUGUUGGUUCAGGACCGGGUGAGUUAAUA [JR_SSTryptoB_Sub004]
Reply: 412

Ask: Give the value of apparent KD of K4 kissing-loop reporter reported for the following: GUAUCGCUAGGAGGAUAUUUCAUAUAAUAUAUAAAUGGAUAUACGGAGUGAUGUUCCGAUUUACGGAAAGAAGGCCUAGUGAUAC [FMN B 18]
Reply: 202

Ask: Give the value of apparent KD of K4 kissing-loop reporter reported for the following: GGCCGCAAGGCGAGCGCUCCCACUCCGGAAGGAGCGCCCGGAAGGGCAGGUAGGUCGCCGGAGUGAUGUUCCGGUGGAGGGCUCG [#2 Exclusion - Arginine A Attempt #18 (Inspired by Omei)]
Reply: 469

Ask: Give the value of apparent KD of K4 kissing-loop reporter reported for the following: GCCGUACGCAUGGAUACCAGCCGACAUGAUAUUUAGCUGGUGUCGUAGUGAUGUUACGAAGGCCCUUGGCAGCCAUGCGUACGGC
Reply: 78.7
